- measurement-protocol: PSAC antagonists in infected red cells, primary screen, cell-based, P. falciparum Indochina, OD700, 18 h (AID 1157)
- condition-summary: P. falciparum Indochina infected erythrocytes, osmotic lysis OD700, 18 h; higher = more signal, called active from +8 up or from −8 down
property: z-score
Lab note: record the figure alone, no unit after it.

Which z-score is reported for this compound? O=C1O[C@H](c2ccccc2)[C@H](c2ccccc2)N2[C@H]1[C@@H](C(=O)N1CCCCCCC1)[C@]1(C(=O)Nc3ccc(C#CCCO)cc31)[C@H]2c1ccc(O)cc1
0.295

Which z-score is reported for this compound? CCCNC(=O)[C@@]1(Sc2ccc(C)cc2)CC(=O)N(Cc2cc(C(F)(F)F)cc(C(F)(F)F)c2)[C@@H]1c1ccc(CO)cc1
-1.15

Which z-score is reported for this compound? C=C(CC1([C@@H](NP(=O)(c2ccccc2)c2ccccc2)[C@H]2C[C@@H]2CCCC)CC1)c1cccc(OC)c1
0.935

Which z-score is reported for this compound? COC(=O)c1c2oc(c1C(=O)OC)C(=O)N[C@H](Cc1ccccc1)Cn1cc(nn1)C1(CCCCC1)NC(=O)N[C@H](CO)CC2
0.286

Which z-score is reported for this compound? C[C@]1(C(=O)NC2CC2)c2ccccc2C(=O)N(Cc2cc(F)cc(C(F)(F)F)c2)[C@H]1c1ccc(CO)cc1
0.597

Which z-score is reported for this compound? COc1cc(Cc2cc3c(c(CCc4ccccc4)n2)[Si](C(C)C)(C(C)C)O[C@H]3c2ccccc2)cc(OC)c1OC
0.0416
